- Tested on: Vaccinia virus
- experiment: Antiviral activity against Vaccinia virus Elstree-Lister ATCC VR-1549 infected in african green monkey Vero-76 cells assessed as reduction in viral plaque after 3 days by crystal violet staining
- Assay type: functional, organism-based
- stated conditions: Orthopoxvirus vaccinia, Elstree-Lister ATCC VR-1549, Vero 76, 72 h
pEC50: −log10 of the molar value.
I'd be grateful if you could share measured pEC50 for these entries.

Prompt: Give its pEC50 value. Item: COc1ccc(-c2nc3cc(C(C)=O)ccc3[nH]2)c(OC)c1OC
Completion: < 4.00

Prompt: Give its pEC50 value. Item: COc1ccc(-c2nc3cc(/C(C)=N/NC(N)=S)ccc3n2C2CCCCC2)c(OC)c1
Completion: < 4.70

Prompt: Give its pEC50 value. Item: CC(=O)c1ccc2c(c1)nc(-c1ccc(Cl)cc1)n2C1CCCCC1
Completion: < 4.00
